hERG current change (%, negative = inhibition) at 10uM: recorded values
# EXPERIMENTAL_SYSTEM: human ether-à-go-go-related gene (hERG) potassium channel (human);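 note: peak tail current of the secondary pulse compared with the same well before compound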
# Sequence (Q12809 whole entry, looked up): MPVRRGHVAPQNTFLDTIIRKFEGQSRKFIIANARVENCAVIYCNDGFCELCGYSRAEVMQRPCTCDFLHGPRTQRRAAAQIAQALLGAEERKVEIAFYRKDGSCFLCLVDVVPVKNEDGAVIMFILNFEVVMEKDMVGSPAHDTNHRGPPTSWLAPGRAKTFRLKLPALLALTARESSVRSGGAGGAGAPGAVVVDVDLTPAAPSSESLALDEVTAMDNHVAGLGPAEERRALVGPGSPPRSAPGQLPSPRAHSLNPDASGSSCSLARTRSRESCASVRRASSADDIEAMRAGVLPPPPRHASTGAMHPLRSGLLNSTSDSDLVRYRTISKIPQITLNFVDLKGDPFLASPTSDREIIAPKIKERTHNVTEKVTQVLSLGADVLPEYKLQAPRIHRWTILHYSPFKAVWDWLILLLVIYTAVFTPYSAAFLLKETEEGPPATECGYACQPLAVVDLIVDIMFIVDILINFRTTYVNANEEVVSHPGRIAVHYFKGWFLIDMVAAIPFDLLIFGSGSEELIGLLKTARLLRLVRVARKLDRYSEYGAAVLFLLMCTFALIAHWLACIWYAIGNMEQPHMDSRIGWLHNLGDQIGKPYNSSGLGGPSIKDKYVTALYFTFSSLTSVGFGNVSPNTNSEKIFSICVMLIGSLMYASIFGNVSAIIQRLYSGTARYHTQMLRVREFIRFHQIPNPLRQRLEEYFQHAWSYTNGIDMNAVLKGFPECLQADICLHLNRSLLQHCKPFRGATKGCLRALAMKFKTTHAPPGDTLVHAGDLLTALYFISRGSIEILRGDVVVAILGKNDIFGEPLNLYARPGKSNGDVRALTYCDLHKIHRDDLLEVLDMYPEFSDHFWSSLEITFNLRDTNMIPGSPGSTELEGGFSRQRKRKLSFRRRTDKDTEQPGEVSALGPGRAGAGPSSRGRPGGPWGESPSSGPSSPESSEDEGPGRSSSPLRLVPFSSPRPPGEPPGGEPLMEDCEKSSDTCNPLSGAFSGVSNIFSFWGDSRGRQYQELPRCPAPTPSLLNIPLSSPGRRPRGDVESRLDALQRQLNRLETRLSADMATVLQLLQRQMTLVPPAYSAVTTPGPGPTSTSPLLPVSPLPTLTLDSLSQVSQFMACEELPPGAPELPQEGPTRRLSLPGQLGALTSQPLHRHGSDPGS
# PROCEDURE_SUMMARY: primary screen, population patch clamp on CHO cells stably expressing hERG; higher = less effect of the substance
Hit rate of the full screen: of about 310,000 compounds, about 14,000 (4.5%) showed an effect of 50% or more. The effect is printed as a negative number. What follows is part of a selection rich in strong results, with near analogues and random picks from the rest.
Report only the number, with the unit % understood.

Solved cases (3 shown):
COMPOUND	EXPERIMENTAL_SYSTEM	U	RESULT_VALUE
Cl.O=C(CN1CCC(NC(=O)c2ccccc2Cl)CC1)NCc1ccco1	human ether-à-go-go-related gene (hERG) potassium channel (human)	%	-2.98
Cc1ccc(C(=O)NC(C)c2ccccc2)cc1Br (centres unmarked)	human ether-à-go-go-related gene (hERG) potassium channel (human)	%	-11.8
O=C1C=C(c2ccccc2)CC(/C=C/c2ccccc2)C1 (centres unmarked)	human ether-à-go-go-related gene (hERG) potassium channel (human)	%	-2.91

Query `N#Cc1c(-c2ccccc2)nc(SCC(=O)Nc2ccc(OC(F)(F)Cl)cc2)[nH]c1=O` yields hERG current change (%, negative = inhibition) at 10uM of 28.5

Query COc1cccc(OC)c1OCCNCC1CSc2ccccc2O1.Cl (centres unmarked) yields hERG current change (%, negative = inhibition) at 10uM of -53.6

Query `COc1cc(NC(=O)COC(=O)/C=C/c2ccc(Cl)cc2Cl)cc(OC)c1` yields hERG current change (%, negative = inhibition) at 10uM of 5.23

Query `Cn1c(CO)cnc1SCc1ccc(Cl)cc1` yields hERG current change (%, negative = inhibition) at 10uM of 0.94

Query `Cc1sc(NC(=O)C2=COCCO2)nc1-c1ccc(F)cc1` yields hERG current change (%, negative = inhibition) at 10uM of 15.5
